molecular target: Bile acid receptor (Homo sapiens); experiment: Antagonist activity at FXR in human HepG2 cells in presence of CDCA by luciferase reporter assay; type: cell-based
Sequence (Q96RI1 whole entry): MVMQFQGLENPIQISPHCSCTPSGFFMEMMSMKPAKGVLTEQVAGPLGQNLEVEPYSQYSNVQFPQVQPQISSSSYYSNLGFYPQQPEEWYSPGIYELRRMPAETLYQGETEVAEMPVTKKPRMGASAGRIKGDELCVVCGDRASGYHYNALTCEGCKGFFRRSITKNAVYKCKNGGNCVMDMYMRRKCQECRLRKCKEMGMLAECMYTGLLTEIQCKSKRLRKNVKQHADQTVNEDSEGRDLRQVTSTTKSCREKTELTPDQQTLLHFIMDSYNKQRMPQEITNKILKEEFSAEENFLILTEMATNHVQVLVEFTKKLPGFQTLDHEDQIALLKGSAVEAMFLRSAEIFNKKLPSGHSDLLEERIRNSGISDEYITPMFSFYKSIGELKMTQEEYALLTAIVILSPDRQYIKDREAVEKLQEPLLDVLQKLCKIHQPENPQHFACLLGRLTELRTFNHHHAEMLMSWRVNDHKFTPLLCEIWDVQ
Metric: IC50 (µM)

C=C1[C@@H](O)CC[C@]2(C)C3CC[C@@]4(C)C(=C3CC[C@@H]12)CC[C@@H]4[C@H](C)CC[C@H](CC)C(C)C (some centres not stated) | 40
CC[C@@H](CC[C@@H](C)[C@H]1CCC2=C3CC[C@H]4C(C)=CCC[C@]4(C)C3CC[C@@]21C)C(C)C (some centres not stated) | 35

====

Molecular target: G-protein coupled bile acid receptor 1 (Homo sapiens, UniProt Q8TDU6)
Sequence (Q8TDU6 whole entry): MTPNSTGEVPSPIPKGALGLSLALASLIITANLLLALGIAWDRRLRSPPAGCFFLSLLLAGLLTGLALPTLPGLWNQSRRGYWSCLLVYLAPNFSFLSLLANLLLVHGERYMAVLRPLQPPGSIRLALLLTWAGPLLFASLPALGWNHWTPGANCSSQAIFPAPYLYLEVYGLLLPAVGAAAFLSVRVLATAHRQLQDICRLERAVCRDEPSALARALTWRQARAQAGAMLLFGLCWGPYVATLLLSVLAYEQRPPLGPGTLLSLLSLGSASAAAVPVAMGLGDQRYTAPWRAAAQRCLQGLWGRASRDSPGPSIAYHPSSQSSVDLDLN
Assay: Agonist activity at human TGR5 transfected in CHO-K1 cells assessed as increase in cAMP production
Format: cell-based
Metric: EC50 (nM)

Cc1c(Cl)cccc1OCCCC(=O)N1CCC(Cc2cccc(C(=O)NCCS(=O)(=O)O)c2)c2ccccc21 (configuration not stated) | 24
Cc1c(Cl)cccc1OCCCC(=O)N1CCCc2c(-c3cnn(Cc4c(F)cc(C(=O)NCCS(=O)(=O)O)cc4Cl)c3)cccc21 | 23

====

Biological target: G-protein coupled bile acid receptor 1 (Homo sapiens)
Sequence (Q8TDU6 whole entry): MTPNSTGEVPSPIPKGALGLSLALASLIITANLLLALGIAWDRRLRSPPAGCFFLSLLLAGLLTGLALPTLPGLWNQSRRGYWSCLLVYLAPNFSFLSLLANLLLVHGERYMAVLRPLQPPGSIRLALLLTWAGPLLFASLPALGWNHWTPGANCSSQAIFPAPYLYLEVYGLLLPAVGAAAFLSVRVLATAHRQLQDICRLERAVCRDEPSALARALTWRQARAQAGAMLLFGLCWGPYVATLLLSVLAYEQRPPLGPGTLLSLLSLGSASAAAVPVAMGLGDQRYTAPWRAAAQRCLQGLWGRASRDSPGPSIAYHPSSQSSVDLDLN
Assay: Agonist activity at TGR5 in human HEK293 cells assessed as increase in cAMP production
Type: cell-based
pEC50: −log10 of the molar value.
Metric: pEC50

Recorded results for 2 compounds are shown here.
Brc1ccc(CCNCc2cc3ccncc3nc2-c2ccsc2)cc1 | > 5.00
Cc1ccc(-c2csc3nnc(SCc4c(F)cccc4Cl)n23)cc1 | > 9.30

As a next step, examine the compound that follows.
Reported pEC50 for `N#Cc1cc(F)ccc1N(C(=O)COc1cccc2cnccc12)c1ccc(F)cc1Cl` was 5.13
